- Measurement protocol: Tmax in tuberculosis patient at 10 mg/kg, po by HPLC analysis
- Type: ADME, organism-based
- Parameters: dose 10 mg/kg, route oral
- Condition info: human, in vivo

Molecule	Tmax [h]
CO[C@H]1/C=C/O[C@@]2(C)Oc3c(C)c(O)c4c(O)c(c(/C=N/N5CCN(C)CC5)c(O)c4c3C2=O)NC(=O)/C(C)=C\C=C\[C@H](C)[C@H](O)[C@@H](C)[C@@H](O)[C@@H](C)[C@H](O)[C@@H]1C	4
CO[C@H]1/C=C/O[C@@]2(C)Oc3c(C)c(O)c4c(O)c(c(/C=N/N5CCN(C)CC5)c(O)c4c3C2=O)NC(=O)/C(C)=C\C=C\[C@H](C)[C@H](O)[C@@H](C)[C@@H](O)[C@@H](C)[C@H](OC(C)=O)[C@@H]1C [RIFAMPIN]	2.5
